Attribute: Cynomolgous Primary Hepatocytes-splice site editing % 5000 ng/mL
system: PCSK9 gene splice site; type: cell-based, cynomolgus monkey
MEASUREMENT_TYPE: Cynomolgous Primary Hepatocytes-splice site editing % 5000 ng/mL (%)

MOLECULE	TEST_RESULT
GA081: PCSK9 gRNA for ABE8.8 splice site editing, Human/Cyno (nucleic acid, listed as RNA; modified_base 1: mod_base = OTHER; note = 2'-O-Methyl-uridine phosphorothioate; modified_base 2: mod_base = OTHER; modified_base, PCSK9 gRNA for ABE8.8 splice site editing, Human/Cyno) guide: TTTCCAGGTCATCACAGTTGGTTTTAGAGCTAGAAATAGCAAGTTAAAATAAGGCTAGTCCGTTATCAACTTGAAAAAGTGGCACCGAGTCGGTGCTTTT	0.3
GA079: PCSK9 gRNA for ABE8.8 splice site editing, Human/Cyno (nucleic acid, listed as RNA; modified_base 1: mod_base = OTHER; note = 2'-O-Methyl-cytidine phosphorothioate; modified_base 2: mod_base = OTHER; note = 2'-O-Methyl-uridine phosphorothioate; modified_bas, PCSK9 gRNA for ABE8.8 splice site editing, Human/Cyno) guide: CTTTCCAGGTCATCACAGTTGTTTTAGAGCTAGAAATAGCAAGTTAAAATAAGGCTAGTCCGTTATCAACTTGAAAAAGTGGCACCGAGTCGGTGCTTTT	0.5
GA080: PCSK9 gRNA for ABE8.8 splice site editing, Human/Cyno (nucleic acid, 2'-O-methyl at 1, 2, other sugars and backbone not given here; further chemistry not fully specified, PCSK9 gRNA for ABE8.8 splice site editing, Human/Cyno) guide: CCTTTCCAGGTCATCACAGTGTTTTAGAGCTAGAAATAGCAAGTTAAAATAAGGCTAGTCCGTTATCAACTTGAAAAAGTGGCACCGAGTCGGTGCTTTT	7.0
GA073: PCSK9 gRNA; protospacer GCTTACCTGTCTGTGGAAGC (SEQ ID NO: 67), splice donor of intron 4 (nucleic acid, listed as RNA; modified_base 1: mod_base = OTHER; note = 2'-O-Methyl-guanosine phosphorothioate; modified_base 2: mod_base = OTHER; note = 2'-O-Methyl-cytidine phosphorothioate; modified_b) guide: GCTTACCTGTCTGTGGAAGCGTTTTAGAGCTAGAAATAGCAAGTTAAAATAAGGCTAGTCCGTTATCAACTTGAAAAAGTGGCACCGAGTCGGTGCTTTT	29.2

Origin of values: patent US20250152746A1
